Experiment: Plasma concentration in Sprague-Dawley rat at 5 mg/kg, po after 4 hrs by LC-MS/MS analysis
Type: ADME, organism-based
Parameters: dose 5 mg/kg, route oral
So I've got a bunch of molecules here, and I need their concentration at 4 h values.
Unit nM implied. Number only.

**Query** Quick one: give measured concentration at 4 h for CS(=O)(=O)c1ccc(C(CCNC(=O)c2ccc(C#N)cc2)c2ccc(F)cc2)cc1 (configuration not stated)
**Result** 3600

**Query** Quick one: give measured concentration at 4 h for "O=C(NCCC(c1ccc(F)cc1)c1ccc(F)cc1)c1ccc(OCC(F)(F)F)nc1"
**Result** 100

* * *

Experiment: Plasma concentration in Sprague-Dawley rat at 5 mg/kg, po after 2 hrs by LC-MS/MS analysis
Format: ADME, organism-based
Set-up: dose 5 mg/kg, route oral
READOUT_TYPE: concentration at 2 h
State the result as a value with its unit after it.

**Query** Quick one: give measured concentration at 2 h for "O=C(NCCC(c1ccc(F)cc1)c1ccc(F)cc1)c1ccc(OCC(F)(F)F)nc1"
**Result** 200 nM

* * *

Experiment: Plasma concentration in Sprague-Dawley rat at 5 mg/kg, po after 1 hr by LC-MS/MS analysis
Assay type: ADME, organism-based
Parameters: dose 5 mg/kg, route oral
READOUT_TYPE: concentration at 1 h (nM)
Unit nM implied. Number only.

**Query** Quick one: give measured concentration at 1 h for "O=C(NCCC(c1ccc(F)cc1)c1ccc(F)cc1)c1ccc(OCC(F)(F)F)nc1"
**Result** 300

* * *

Assay: Aqueous solubility at pH 7.4
Type: physicochemical
READOUT_TYPE: solubility

**Query** Quick one: give measured solubility for "O=C(NCCC(c1ccc(F)cc1)c1ccc(F)cc1)c1ccc(OCC(F)(F)F)nc1"
**Result** < 0.1 µg/mL

Origin of measurements: ChEMBL document CHEMBL1153540
